Please provide measured pEC50 for the entries that follow.
target-or-system: rat ganglionic nAChR subtype (PC12 cells) (Rattus norvegicus, UniProt P04757+P12392)
Construct: These cells express ganglion-like nAChRs; endogenous in cells; host or cells: PC12 (rat pheochromocytoma)
Sequence (P04757 26-499): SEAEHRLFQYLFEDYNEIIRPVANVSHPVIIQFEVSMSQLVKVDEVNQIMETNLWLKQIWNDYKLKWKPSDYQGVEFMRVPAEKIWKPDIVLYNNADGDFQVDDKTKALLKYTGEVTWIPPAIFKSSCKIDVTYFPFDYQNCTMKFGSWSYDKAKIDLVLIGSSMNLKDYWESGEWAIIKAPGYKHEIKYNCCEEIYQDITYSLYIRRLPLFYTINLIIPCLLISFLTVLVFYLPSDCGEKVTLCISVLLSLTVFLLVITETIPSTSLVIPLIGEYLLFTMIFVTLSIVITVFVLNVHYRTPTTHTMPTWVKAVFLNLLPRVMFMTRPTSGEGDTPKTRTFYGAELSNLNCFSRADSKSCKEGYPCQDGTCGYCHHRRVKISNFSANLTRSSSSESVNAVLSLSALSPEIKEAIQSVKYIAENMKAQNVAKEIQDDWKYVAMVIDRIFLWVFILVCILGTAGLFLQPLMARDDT
Sequence (P12392 21-495): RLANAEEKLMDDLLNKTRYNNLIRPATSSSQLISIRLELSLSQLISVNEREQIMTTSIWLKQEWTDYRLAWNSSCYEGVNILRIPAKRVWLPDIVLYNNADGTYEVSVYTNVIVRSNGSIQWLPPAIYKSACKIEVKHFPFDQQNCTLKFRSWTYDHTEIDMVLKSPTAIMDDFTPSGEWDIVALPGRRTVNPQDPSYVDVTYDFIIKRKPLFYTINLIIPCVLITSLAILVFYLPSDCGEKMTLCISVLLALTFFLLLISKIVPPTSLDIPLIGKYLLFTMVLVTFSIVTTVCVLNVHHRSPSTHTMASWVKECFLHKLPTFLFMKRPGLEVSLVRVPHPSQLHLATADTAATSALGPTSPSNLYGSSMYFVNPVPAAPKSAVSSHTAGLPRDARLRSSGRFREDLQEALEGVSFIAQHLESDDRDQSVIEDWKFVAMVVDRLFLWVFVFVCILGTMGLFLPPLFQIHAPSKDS
experiment: cell-based
Format: cell-based
Experimental: Activation of rat ganglion nAChRs was established on the pheochromocytoma clonal line PC12, which is a continuous clonal cell line of neural crest origin, derived from a tumor of the rat adrenal medulla. […] On the day of the experiment, growth media was gently removed from the well and growth media containing ^86Rubidium chloride (10^6 μCi/mL) was added to each well. […] Scintillation fluid was added and released radioactivity was measured by liquid scintillation counting. […]
Answers are plain numbers, as −log10 of the molar value.

c1cncc([C@@H]2C[C@@H]3CCN2C3)c1 (relative stereo) = 6.82
Brc1cncc(C2CC3CCN2CC3)c1 (racemic) = 5.52
c1cncc([C@H]2C[C@@H]3CCN2C3)c1 (relative stereo) = 6.82

Prompt: # get_value(readout='pEC50', item= CCOc1cncc(C2CC3CCN2CC3)c1.Cl.Cl (stereo not shown) [Sample No. 7, dihydrochloride] )
Response: 5.00

* * *

Could you please report measured EC50 for the items listed next?
Tested on: striatal synaptosomes (dopamine release)
experiment: cells
Assay type: cell-based, rat
measurement-setup: Rattus norvegicus, read-out: Dopamine Release EC50
Numbers only, in nM.

Solved cases below.
c1cncc(C2C3CCN2CC3)c1 (centres unmarked) [Sample No. 5, 7-(3-pyridyl)-1-azabicyclo[2.2.1]heptane] = 4
c1cncc([C@@H]2C[C@@H]3CCN2C3)c1 (relative stereo) = 33
c1cncc([C@H]2C[C@@H]3CCN2C3)c1 (relative stereo) = 6
Brc1cncc(C2CC3CCN2CC3)c1 (racemic) = 2

Turning to the following compound.
Prompt: Consider the compound CCOc1cncc(C2CC3CCN2CC3)c1.Cl.Cl (centres unmarked) [Sample No. 7, dihydrochloride] and give its measured EC50.
Response: 5
